- Tested on: Staphylococcus aureus CIP52.1
- Assay Details: Minimum inhibitory concentration (MIC), NCCLS dilution antimicrobial susceptibility test
- Assay type: cell-based
- Experimental Conditions: Table II, Example 1; mean of at least three tests; bacteriostatic effect; read-out: MIC RESULTS MEAN
- Description: The bacterium Staphylococcus aureus CIP52.1 may be used in order to determine for each test compound the minimum inhibitory concentration for the bacterium, or MIC, expressed in μM. […] Each compound of the invention was tested at least three times. The average of the test results was calculated, along with the standard deviation. […]
Provide the recorded MIC for the entries that follow.
Answers are plain numbers, in µM.

> print(dat)
                  compound.structure.string  measure  recorded.number
1  COCOc1ccccc1-c1ccc(-c2ccc(C(=O)O)cc2)cc1-c1ccc2c(c1)C(C)(C)CCC2(C)C      MIC             3.33
2  COc1cc2c(cc1-c1cc(-c3ccc(C(=O)O)cc3)ccc1-c1ccccc1)C(C)(C)CCC2(C)C      MIC             2.50
3  CC1(C)CCC(C)(C)c2cc(-c3cc(-c4ccc(C(=O)O)cc4O)ccc3-c3ccccc3)ccc21      MIC             1.66
4  CC1(C)CCC(C)(C)c2cc(-c3cc(-c4ccc(C(=O)O)cc4)ccc3-c3ccccc3)c(O)cc21      MIC             2.08
5  COc1ccc(-c2ccc3cc(C(=O)NCCN(C)C)ccc3c2)cc1C12CC3CC(CC(C3)C1)C2      MIC             5.00
6  O=C(O)c1ccc(-c2ccc3cc(O)c(C45CC6CC(CC(C6)C4)C5)cc3c2)cc1      MIC             2.50

Please look at the following compound next.
Report MIC, nothing else, for this compound: `COCOc1cc2c(cc1-c1cc(-c3ccc(C(=O)O)cc3)ccc1-c1ccccc1)C(C)(C)CCC2(C)C`
5.00

###

- System: Staphylococcus aureus CIP52.1
- Assay Details: Minimum inhibitory concentration (MIC), NCCLS dilution antimicrobial susceptibility test
- Assay type: cell-based
- Experimental Conditions: Staphylococcus aureus, CIP52, Table II, Example 1; mean of at least three tests; bacteriostatic effect; read-out: MIC RESULTS MEAN
- Procedure: The bacterium Staphylococcus aureus CIP52.1 may be used in order to determine for each test compound the minimum inhibitory concentration for the bacterium, or MIC, expressed in μM. […] Each compound of the invention was tested at least three times. The average of the test results was calculated, along with the standard deviation. […]
Measure: MIC
Report the figure along with its unit, number first.

> print(dat)
                  compound.structure.string  measure   result
1  COCOc1ccc(/C=C/C#Cc2ccc(C(=O)O)cc2)c(-c2ccc(C)cc2)c1      MIC  3.33 µM
2  Cc1ccc(-c2c(C)cccc2C=CC#Cc2ccc(C(=O)O)cc2)cc1      MIC  2.08 µM
3  Cc1ccc(-c2ccc(C)cc2C=CC#Cc2ccc(C(=O)O)cc2)cc1      MIC  1.66 µM
4  CCCCCCCC/C=C(\C(=O)Nc1ccc(C(=O)O)cc1)c1ccc2c(c1)C(C)(C)CCC2(C)C      MIC  4.16 µM

Give one value of MIC per listed molecule.
1. COc1c(O)cc(-c2ccc3cc(C(=O)O)ccc3c2)cc1C12CC3CC(CC(C3)C1)C2
2. CCCCCCCCCC(C)(C)c1cc(C(=O)Nc2ccc(C(=O)O)cc2)ccc1OC
3. O=C(O)c1ccc2oc(-c3ccc(O)c(C45CC6CC(CC(C6)C4)C5)c3)cc2c1

1. 1.04 µM
2. 3.33 µM
3. 3.33 µM

// each molecule listed below needs its MIC
1. COc1cccc(-c2ccc(C)cc2)c1C=CC#Cc1ccc(C(=O)O)cc1
2. Cc1ccc(-c2ccccc2C=CC#Cc2ccc(C(=O)O)cc2)cc1

1. 3.33 µM
2. 4.16 µM
